Please provide measured z-score for the entries that follow.
Assay: S. cerevisiae RM11-1a growth modifiers, primary screen, strain RM11-1a, OD600, basal, 24 h (AID 1177);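 also: cultures grown under basal conditions with no added stressor; test concentration not given here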
Conditions: OD600, 24 h, higher = more signal, called active from +8 up or from −8 down
One number for each entry.

1. COCC(=C=CC[C@H](O)c1ccc(OCCO)cc1)C[C@H](O)COCc1ccccc1 | -1.3

Parameter requested: z-score. Apply to each item below.
1. COc1cc2c(cc1O)C(C)N(Cc1cc3c(cc1Br)OCO3)CC2 (configuration not stated)
2. C=C(CCCC)C(=O)CC[C@@H](OC(=O)c1ccccc1-c1ccccc1C(=O)O)c1cccc(OCCO)c1
3. Cc1ccc(F)cc1S(=O)(=O)N[C@@H]1CCN(Cc2ccc(Oc3ccccc3)cc2)C1
4. COc1ccc(C(O)C2C=CC3C(=O)N(c4ccccc4)C(=O)C3N2Nc2ccccc2)cc1OCc1ccccc1 (configuration not stated)

Marked response:
[0.526, 0.134, -9.2, 0.0482]

I'm hoping you can list z-score for every compound here, please.
1. COc1cc2c(cc1OC)CN(C(=O)[C@H]1[C@@H]3C(=O)O[C@@H](c4ccccc4)[C@@H](c4ccccc4)N3[C@@H](c3ccc(OCCO)cc3)[C@]13C(=O)Nc1ccc(C#CCCO)cc13)CC2
2. CO[C@H]1O[C@H](CO)[C@@H](OC(=O)Nc2ccc(Oc3ccccc3)cc2)[C@H](OC(=O)Nc2ccccc2-c2ccccc2)[C@@H]1OC(=O)Nc1ccccc1-c1ccccc1

Marked response:
[2.49, 2.58]

###

Experiment: CREB reporter modulators without forskolin, primary screen, cell-based, PC12, CRE-LacZ reporter, unstimulated (AID 1145)
Settings: no forskolin, luminescence, 4.5 h, higher = more signal, called active from +8 up or from −8 down
Please mark 1 if the recorded z-score is equal to or greater than 0.4, and 0 if it falls below.

Exam item: Could you please find out whether [N-]=[N+]=NCc1ccccc1C[C@@]1(C(N)=O)N=C(c2ccc(OCCCO)cc2)O[C@@H]1c1ccccc1CN=[N+]=[N-] has z-score that meets 0.4 or exceeds it?
Marked response: 0

Exam item: Determine whether this molecule has z-score no lower than 0.4: CCOC(=O)C[C@H]1[C@H](OC(=O)Cc2ccc3c(c2)OCO3)[C@@H](NC(=O)Cc2ccc(OC)cc2)c2cc(OCCCO)ccc2N1C(=O)c1ccccc1
Marked response: 0

Exam item: Assess whether reported z-score for C=CCOC(=O)[C@H]1[C@@H]2C(=O)O[C@@H](c3ccccc3)[C@@H](c3ccccc3)N2[C@@H](c2ccc(OCCOC(=O)[C@H]3C[C@H]4C(=O)N[C@@H](CCCC[N+](C)(C)C)C(=O)N4[C@H]3c3cccc(OCCO)c3)cc2)[C@]12C(=O)Nc1ccc(I)cc12 sits at 0.4 or higher.
Marked response: 1

Exam item: State whether the measured z-score reaches 0.4, counting equality as reaching it, for CC(C)NC(=O)[C@@]1(C)c2ccccc2C(=O)N(C(C)C)[C@H]1c1ccc(CO)cc1
Marked response: 0

Exam item: Form field: z-score at least 0.4? Entry: NCCCCCCNC(=O)[C@@H]1C[C@@H]2C(=O)N3CCC[C@H]3C(=O)N2[C@@H]1c1ccc(O)cc1
Marked response: 1

###

Give measured composite z-score for each item. Keep answers brief.
Biological target: Carbonic anhydrase 2 (Homo sapiens) (UniProt P00918)
Test: CAII small-molecule binders, profiling panel, biochemical, small-molecule microarray, Alexa647-labelled CAII (AID 1122)
Conditions: CAII-A647 binding fluorescence, higher = more signal
Numbers only.

Recorded results for 5 compounds are shown here.
1. O=c1cccc(-c2ccc(C(F)(F)F)cc2)o1 | -0.14
2. O=C(CCCCCCC(=O)Nc1ccccc1)N/N=C/c1ccccc1 | -0.251
3. CC(C)(C)OC(=O)CC[C@@]1(C(=O)O)N=C(c2ccc(OCCCO)cc2)O[C@@H]1c1ccccc1 | 0.824
4. C=CCN1Cc2ccccc2C[C@@]2(N=C(c3ccc(OCCCO)cc3)O[C@H]2c2ccccc2)C1=O | 0.577
5. COC(=O)[C@@]1(Cc2ccccc2)[C@H]2c3cc(C(=O)N4CCCC4)n(C[C@H](O)CO)c3C[C@H]2CN1C(=O)c1ccccc1 | 0.907

// for each compound below, give its composite z-score
1. COc1ccc(C(O)C2C=CC3C(=O)N(Cc4ccccc4)C(=O)C3N2n2cnnc2)c2ccccc12 (stereo not given)
2. COCCOC(=O)N1C(=O)[C@@]2(c3cc(C#CC4(O)CCCCCC4)ccc31)[C@H](c1ccccc1OCCO)N1[C@H](c3ccccc3)[C@H](c3ccccc3)OC(=O)[C@H]1[C@@H]2C(N)=O
3. COc1ccc([Si](C)(C)[C@@H]2[C@@H](CCO)O[C@]3(C(=O)N(Cc4cccc(N5C(=O)c6cccc7cccc5c67)c4)c4ccccc43)[C@H]2C)cc1

Marked response:
[0.783, 0.378, 0.428]

For each of the items listed, what is its composite z-score?
1. CC(C)C(CO)N1C(=O)[C@]2(C)C3C(=O)OCCC/C=C\[C@H]3OC23C=CCN(c2ccc(Cl)cc2)C(=O)[C@@H]13 (stereo not given in full)
2. NC(=O)N1C(=O)C2C(C1=O)C1C=C(CCCO)C2C(c2cccs2)N1Cc1cc2c(cc1Br)OCO2 (stereo not given)
3. [N-]=[N+]=Nc1ccccc1[C@@H]1OC(c2ccc(OCCCO)cc2)=N[C@]1(CCS(=O)(=O)c1ccccc1)C(=O)NCCN1CCOCC1
4. C[C@@H](OCc1ccccc1)C1NC(=O)[C@@]23C(=O)N[C@@H](Cc4ccccc4)C2[C@H](C)[C@@]2(C)O[C@H]2C3/C=C/C/C=C\CNC(=O)CNC1=O (stereo not given in full)
5. Cc1c(NC(=O)/C(C#N)=C/C=C/c2ccccc2[N+](=O)[O-])c(=O)n(-c2ccccc2)n1C
6. COc1ccc(C(O)C2C=CC3C(=O)N(c4ccccc4)C(=O)C3N2Nc2ccc(C#N)cc2)c2ccccc12 (stereo not given)
7. C[C@]12C(=O)N(CCCCCCO)[C@@H]3C(=O)N(c4ccc(Cl)cc4)CC=CC31O[C@@H]1/C=C\CCCOC(=O)C12 (stereo not given in full)

Marked response:
0.853
0.757
0.485
0.721
0.643
0.734
0.695
